target: CDK2/CycE (Homo sapiens, UniProt P24941); construct: GST; purchased ProQinase GmbH (Freiburg, Germany); host or cells: insect cells (Sf9); assay: CDK2/CycE high ATP kinase assay (TR-FRET, 2 mM ATP); format: biochemical; conditions: Method 2b
pIC50: −log10 of the molar value.
Observable: pIC50

Compound	Tgt	pIC50
CCNC(=O)N=S(C)(=O)Cc1ccnc(Nc2cc(-c3ccc(F)cc3OC)c(F)cn2)c1 (racemic) [Example 12]	CDK2/CycE (Homo sapiens, UniProt P24941)	5.51
CCOC(=O)N=S(C)(=O)Cc1ccnc(Nc2cc(-c3ccc(F)cc3OC)c(F)cn2)c1 (racemic) [Example 11]	CDK2/CycE (Homo sapiens, UniProt P24941)	5.53
COc1cc(F)ccc1-c1cc(Nc2cc(CS(C)(=N)=O)ccn2)ncc1F (single isomer, unassigned; (+)) [Example 2]	CDK2/CycE (Homo sapiens, UniProt P24941)	5.53

These data points were gathered from patent US9650340B2.
